Reference source for all entries: paper PMC5132079

Experiment: Plasma cabotegravir pharmacokinetics after third dose
Assay type: in vivo
Conditions: female, human, po, 150 mg, tmax, median (range), oral 150 mg every 12 hours × 3 doses, women (n = 9)
reported property: Tmax (h)
Answers are plain numbers, in h.

Record C[C@H]1CO[C@@H]2Cn3cc(C(=O)NCc4ccc(F)cc4F)c(=O)c(O)c3C(=O)N12 , field Tmax: 2

###

Test: Plasma cabotegravir pharmacokinetics after third dose
Assay type: in vivo
Conditions: female, human, po, 150 mg
reported property: Cmax (ng/mL)
Answers are plain numbers, in ng/mL.

Cmax reading for C[C@H]1CO[C@@H]2Cn3cc(C(=O)NCc4ccc(F)cc4F)c(=O)c(O)c3C(=O)N12 [Cabotegravir] : 25100

###

Test: Plasma cabotegravir pharmacokinetics after third dose
Assay type: in vivo
Conditions: both, human, po, 150 mg, AUC0–12, geometric mean (CV,%) [90%CI], oral 150 mg every 12 hours × 3 doses, all subjects (n = 40)
reported property: AUC(0-t)

AUC(0-t) reading for C[C@H]1CO[C@@H]2Cn3cc(C(=O)NCc4ccc(F)cc4F)c(=O)c(O)c3C(=O)N12 : 217 µg·h/mL

###

Assay: Plasma cabotegravir pharmacokinetics after third dose
Type: in vivo
Conditions: male, human, po, 150 mg, AUC0–12, geometric mean (CV,%) [90%CI], oral 150 mg every 12 hours × 3 doses, men (n = 31)
reported property: AUC(0-t) (µg·h/mL)
Give bare numbers, in µg·h/mL.

The value of AUC(0-t) measured for the compound C[C@H]1CO[C@@H]2Cn3cc(C(=O)NCc4ccc(F)cc4F)c(=O)c(O)c3C(=O)N12 turned out to be 213

###

Assay: Plasma cabotegravir pharmacokinetics after third dose
Assay type: in vivo
Conditions: male, human, po, 150 mg
reported property: Cmax (ng/mL)
Answers are plain numbers, in ng/mL.

C[C@H]1CO[C@@H]2Cn3cc(C(=O)NCc4ccc(F)cc4F)c(=O)c(O)c3C(=O)N12 yielded Cmax of 21900

###

Experiment: Plasma cabotegravir pharmacokinetics after third dose
Format: in vivo
Conditions: both, human, po, 150 mg, AUC0–24, geometric mean (CV,%) [90%CI], oral 150 mg every 12 hours × 3 doses, all subjects (n = 40)
reported property: AUC(0-t)
// return the numeric value with its unit appended

Per the records, this molecule ( C[C@H]1CO[C@@H]2Cn3cc(C(=O)NCc4ccc(F)cc4F)c(=O)c(O)c3C(=O)N12 [Cabotegravir] ) has AUC(0-t) equal to 386 µg·h/mL

###

Experiment: Plasma cabotegravir pharmacokinetics after third dose
Assay type: in vivo
Conditions: male, human, po, 150 mg, tmax, median (range), oral 150 mg every 12 hours × 3 doses, men (n = 31)
reported property: Tmax (h)
Numbers only, in h.

The value of Tmax measured for the molecule C[C@H]1CO[C@@H]2Cn3cc(C(=O)NCc4ccc(F)cc4F)c(=O)c(O)c3C(=O)N12 [Cabotegravir] turned out to be 2
